Recorded measurements of Population Mitochondria Different-Phenotype (%), one per entry
- Test system: U2OS
- Protocol Text: Multiplex assay against U2OS
- Format: toxicity, cell-based
- Study Conditions: human, 24 h, 10 µM, compound concentration 10 uM, replicate 1

Look over these answered cases.
| Molecule | Readout Value |
| --- | --- |
| CN1CCN(Cc2ccc(Nc3ncc(Cl)c(Nc4ccccc4S(=O)(=O)N(C)C)n3)cc2)CC1 | 45% |
| CNC(=O)Nc1ccc2c(c1)[C@@]1(CC2)OC(=O)N(CC(=O)N(Cc2ccc(F)cc2)[C@@H](C)C(F)(F)F)C1=O | 14% |
| CC(C)OC(=O)N1CCC(Oc2ncnc3c2cnn3-c2ccc(S(C)(=O)=O)cc2F)CC1 | 14% |

The molecule listed as `COc1cc(Nc2nccc(-c3cnn4nc(OC)ccc34)n2)cc(C(F)(F)F)c1` has a reported Population Mitochondria Different-Phenotype (%) of 47%

// Population Mitochondria Different-Phenotype (%) lookup, molecule = `C=CC(=O)Nc1ccc2[nH]c(=O)n(C3CCN(Cc4ccc(-c5nc6cc[nH]c(=O)c6cc5-c5ccccc5)cc4)CC3)c2c1` , result: 19%

According to the records, this molecule CC1=C(C(=O)Nc2cc3cn[nH]c3cc2F)C(c2ccc(C(F)(F)F)cc2)CC(=O)N1 (stereo not drawn) displays Population Mitochondria Different-Phenotype (%) of 6%

Documented Population Mitochondria Different-Phenotype (%) of CCc1nn(CCCN2CCN(c3cccc(Cl)c3)CC2)c(=O)n1CCOc1ccccc1.Cl [NEFAZODONE HYDROCHLORIDE] : 98%

Population Mitochondria Different-Phenotype (%) recorded for this molecule, `CNC(=O)Nc1ccc(-c2nc(N3CC4CCC(C3)O4)c3cnn(C4CCC5(CC4)OCCO5)c3n2)cc1` , is 89%
